Entry source: ChEMBL document CHEMBL1140960

inhibition reference
# targetOrTestSystem: RAF proto-oncogene serine/threonine-protein kinase (Homo sapiens) (UniProt P04049)
# Sequence (P04049 whole entry): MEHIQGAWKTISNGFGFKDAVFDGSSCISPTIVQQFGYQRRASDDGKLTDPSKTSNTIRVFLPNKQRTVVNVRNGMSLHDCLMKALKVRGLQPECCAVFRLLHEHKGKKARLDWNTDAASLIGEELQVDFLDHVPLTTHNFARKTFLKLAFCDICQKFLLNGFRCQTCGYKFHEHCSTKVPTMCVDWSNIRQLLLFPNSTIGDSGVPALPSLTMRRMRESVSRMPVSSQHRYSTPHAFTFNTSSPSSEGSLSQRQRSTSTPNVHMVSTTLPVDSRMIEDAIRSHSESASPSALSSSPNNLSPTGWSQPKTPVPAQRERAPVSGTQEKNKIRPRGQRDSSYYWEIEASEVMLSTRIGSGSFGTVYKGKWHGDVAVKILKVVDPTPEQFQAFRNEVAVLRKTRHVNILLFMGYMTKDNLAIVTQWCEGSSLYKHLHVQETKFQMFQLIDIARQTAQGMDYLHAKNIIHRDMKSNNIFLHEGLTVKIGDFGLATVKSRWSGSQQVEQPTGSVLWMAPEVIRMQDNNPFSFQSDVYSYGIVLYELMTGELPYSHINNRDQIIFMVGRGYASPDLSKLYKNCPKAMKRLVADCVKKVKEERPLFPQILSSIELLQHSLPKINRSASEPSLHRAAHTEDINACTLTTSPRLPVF
# measurementNotes: Inhibition of Raf1 at 50 uM by liquid scintillation counting
property: inhibition (%)

| chemSmiles | targetOrTestSystem | obsValue |
| --- | --- | --- |
| COc1ccc(C(=O)Nc2nc3c(OC)cccc3s2)cc1 | RAF proto-oncogene serine/threonine-protein kinase (Homo sapiens) (UniProt P04049) | 7.8 |
| O=C(Nc1cccc([N+](=O)[O-])c1)Nc1nc2ccc(F)cc2s1 | RAF proto-oncogene serine/threonine-protein kinase (Homo sapiens) (UniProt P04049) | 7.9 |
| COc1cccc2sc(NC(=O)c3ccc(C)cc3)nc12 | RAF proto-oncogene serine/threonine-protein kinase (Homo sapiens) (UniProt P04049) | 37 |
| Cc1cc2nc(NC(=O)Nc3ccccc3C)sc2cc1C | RAF proto-oncogene serine/threonine-protein kinase (Homo sapiens) (UniProt P04049) | 14.9 |

====

# Test system: NUGC-3
# measurementNotes: Antiproliferative activity against human NUGC3 cells by SRB assay
# Format: functional
property: log10 of GI50 (log10 of the value in µg/mL)

| chemSmiles | log10 of GI50 |
| --- | --- |
| Cc1cc(C)c2sc(NC(=O)c3ccc(C(F)(F)F)cc3)nc2c1 | 0.15 |
| COc1ccc(C(=O)Nc2nc3c(OC)cccc3s2)cc1 | 0.54 |
| Cc1ccc(C(=O)Nc2nc3cc(C)cc(C)c3s2)cc1 | 0.37 |
| Cc1cc(C)c2sc(NC(=O)c3ccc([N+](=O)[O-])cc3)nc2c1 | 0.12 |
| Cc1cc2nc(NC(=O)Nc3ccccc3C)sc2cc1C | -0.74 |

====

# Test system: NUGC-3
# measurementNotes: Antiproliferative activity against human NUGC3 cells by SRB assay
# Type: functional
GI50 reference

| chemSmiles | GI50 |
| --- | --- |
| COc1ccc2nc(NC(=O)c3ccc(C)cc3)sc2c1 | > 10 µg/mL |
| COc1cccc2sc(NC(=O)c3ccc(C)cc3)nc12 | > 10 µg/mL |
| O=C(Nc1cccc([N+](=O)[O-])c1)Nc1nc2ccc(Cl)cc2s1 | 1.03 µg/mL |
| COc1ccc(C(=O)Nc2nc3cc(OC)ccc3s2)cc1 | > 10 µg/mL |
| Cc1ccc2nc(NC(=O)Nc3cccc([N+](=O)[O-])c3)sc2c1 | > 10 µg/mL |
| COc1cccc2c1C(=O)c1c(O)c3c(c(O)c1C2=O)C[C@@](O)(C(=O)CO)C[C@@H]3O[C@H]1C[C@H](N)[C@H](O)[C@H](C)O1 | 0.11 µg/mL |
| COc1cccc2sc(NC(=O)c3ccc([N+](=O)[O-])cc3)nc12 | > 10 µg/mL |
| O=C(Nc1ccccc1)Nc1nc2ccc(F)cc2s1 | > 10 µg/mL |
| COc1ccc2sc(NC(=O)c3ccc([N+](=O)[O-])cc3)nc2c1 | > 10 µg/mL |
| O=C(Nc1nc2ccc(F)cc2s1)Nc1ccccc1F | > 10 µg/mL |
| COc1cccc2sc(NC(=O)c3ccc(C(F)(F)F)cc3)nc12 | > 10 µg/mL |
| Cc1cc(C)c2sc(NC(=O)c3ccc(C#N)cc3)nc2c1 | 0.62 µg/mL |
| O=C(Nc1nc2ccc([N+](=O)[O-])cc2s1)c1ccc(C(F)(F)F)cc1 | 1.65 µg/mL |
| O=C(Nc1cccc([N+](=O)[O-])c1)Nc1nc2ccc(F)cc2s1 | 0.83 µg/mL |
| COc1ccc(C(=O)Nc2nc3cc(C)cc(C)c3s2)cc1 | > 10 µg/mL |
| COc1ccc2sc(NC(=O)c3ccc(C)cc3)nc2c1 | > 10 µg/mL |

====

# System: NUGC-3
# measurementNotes: Antiproliferative activity against human NUGC3 cells by SRB assay
# Format: functional

| chemSmiles | GI50 |
| --- | --- |
| COc1ccc2sc(NC(=O)c3ccc(C(F)(F)F)cc3)nc2c1 | > 10 µg/mL |
| COc1ccc(NC(=O)Nc2nc3ccc(F)cc3s2)cc1 | > 10 µg/mL |
| Cc1ccccc1NC(=O)Nc1nc2ccc(F)cc2s1 | > 10 µg/mL |
| O=C(Nc1nc2ccc(C(F)(F)F)cc2s1)c1ccc([N+](=O)[O-])cc1 | > 10 µg/mL |
| COc1ccc2sc(NC(=O)c3ccc(C#N)cc3)nc2c1 | > 10 µg/mL |
| COc1cccc2sc(NC(=O)c3ccc(C#N)cc3)nc12 | > 10 µg/mL |
